Tested on: PHKG2
TEST CONDITIONS: concentration: 1 μM, replicates: in singlicate; n = 1;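 further: KINOMEscan kinase panel screen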
QUANTITY MEASURED: %Inh (%)

>>> result("O=C(Nc1n[nH]c2nc(-c3ccccc3)c(Cl)cc12)C1CC1")
7
>>> result("CCC(=O)c1c(-c2ccccc2)c2cc(Cl)ccc2c(=O)n1Cc1cc(C(=O)NC2CC2)n(C)n1")
0
>>> result("COc1ccc(-c2cc3c(C)nc(N)nc3n([C@H]3CC[C@H](OCCO)CC3)c2=O)cn1")
0
>>> result("COc1cccc(C2=C(Nc3cccc(C(=O)O)c3)C(=O)NC2=O)c1")
1
>>> result("C[C@@H]1CC[C@H](C(=O)NC2CCCCC2)CN1c1cc(-c2ccc3c(N)n[nH]c3c2)nc(N)n1")
17
>>> result("Cc1ccc(Oc2ccc(Nc3ncnc4cc[nH]c34)cc2C)cn1")
0
>>> result("CCS(=O)(=O)c1ccc(OC)c(Nc2ncc(-c3ccc(F)cc3)o2)c1.Cl")
0
>>> result("COc1cc(Nc2nccc(N3CCC(NC(=O)C(C)c4ccc(Cl)cc4)C3)n2)cc(OC)c1OC (stereo not drawn)")
0
>>> result("Cc1ccc(-c2ccc3c(ccc4sc5c(c43)NC[C@@H](C)N=C5N(C)C)n2)cn1")
0
>>> result("COc1cc(OC)cc(-c2cc3cnc(N)nc3nc2NC(=O)NC(C)(C)C)c1")
0
>>> result("COc1cc2ncn(-c3cc(OCc4ccncc4)c(C(N)=O)s3)c2cc1OC")
0
>>> result("O=C(Nc1ccc2c(c1)OCO2)NC1CCN(c2ccnc(NCc3ccc(F)cc3)n2)CC1")
0
>>> result("CCC(=O)c1c(-c2ccccc2)c2cc(Cl)ccc2c(=O)n1Cc1ccc(C(=O)O)cc1")
0
>>> result("Fc1cccc(CSc2nnc(-c3ccc4c(c3)CCO4)o2)c1")
0
>>> result("Cc1cc(Nc2nc(-c3cccc(C)n3)nc3ccccc23)ccn1")
0
>>> result("CN1C(=O)C(Nc2ccccc2)=C(c2ccccc2)C1=O")
0
>>> result("COc1cc2nccc(Nc3cccc(Oc4ccccc4)c3)c2cc1OC.Cl")
0
>>> result("O=C(Nc1n[nH]c2nc(-c3ccccc3)c(Br)cc12)C1CC1")
0

====

Tested on: CDKL2
TEST CONDITIONS: concentration: 1 μM, replicates: in singlicate; n = 1
QUANTITY MEASURED: %Inh (%)

>>> result("Cc1ccc(Oc2ccc(Nc3ncnc4cc[nH]c34)cc2C)cn1")
0
>>> result("COc1ccc(Nc2nccc(N3CCC(NS(=O)(=O)c4ccc(NC(C)=O)cc4)C3)n2)cc1 (stereo not shown) [GSK1379729]")
14
>>> result("Nc1ncnc2c1ncn2-c1cccc2ccccc12 [SKF-97184]")
0
>>> result("CCc1nc(-c2cccc(C)c2)c(-c2ccncc2)s1")
4
>>> result("Cn1c(=O)c(F)c(Nc2ccc(I)cc2F)c2c(=O)n(OC[C@H](O)CO)cnc21")
29
>>> result("O=C(Nc1n[nH]c2nc(-c3ccccc3)c(Cl)cc12)C1CC1 [SB-734909]")
35
>>> result("Nc1ncnc2c1ncn2-c1ccc(Cl)cc1 [AH2635]")
6
>>> result("Nc1n[nH]c2nnc(-c3ccccc3)c(-c3ccccc3)c12 [GW554060]")
0
>>> result("Cc1cc(Nc2nc(-c3cccc(C)n3)nc3ccccc23)ccn1 [GW872411]")
0
>>> result("COc1cc2ncn(-c3cc(OCc4ccncc4)c(C(N)=O)s3)c2cc1OC [GSK336313]")
15

Data credit: paper PMC5540273
